# Tested on: SNB-19 CNS
# test_description: NCI-60 one-dose screen, 48 h
# experimental_parameters: 10 µM unless noted
Compounds without any hit were thinned out: in the full panel of roughly 83,000, 20% have a hit. Calls of active or inactive are those of the source. The calls were made as follows: active = growth percent below 10; inactive = the rest.
Answer with one of the outcomes given here: 1.0 = active, 0.0 = inactive

Can you look up the reported call for "Cn1ccc2c3c(ccc21)CC3=O" for me?
0.0

Can you look up the reported call for "Oc1c(Cl)cc(Cl)cc1/C=N/Nc1nnc(N/N=C/c2cc(Cl)cc(Cl)c2O)c2ccccc12" for me?
0.0

Can you look up the reported call for "COc1ccc(-c2cn(-c3cc(OC)c(OC)c(OC)c3)c(=O)n2C(C)=O)cc1" for me?
0.0

Can you look up the reported call for CC(C)NC1CCC(Nc2ccnc3cc(Cl)ccc23)CC1 (stereo unspecified) for me?
0.0

Can you look up the reported call for "Cc1ccc(Sc2nnc(/N=C3\C(=O)Nc4ccccc43)s2)cc1" for me?
0.0

Can you look up the reported call for "COc1ccc2c3c([nH]c2c1)C(=O)c1nc(C)ccc1C3=O" for me?
0.0

Can you look up the reported call for N#CC1=C(N)Oc2c(sc3c(Br)cccc23)C1c1ccc(F)cc1 (stereo unspecified) for me?
0.0

Can you look up the reported call for "CCC(=C(c1ccc(OCCN2CCCC2)cc1)c1ccc(OCCN2CCCC2)cc1)c1ccc(Cl)cc1" for me?
1.0

Can you look up the reported call for "O=C(Nc1ccc(NC(=O)c2cc(=O)[nH]c3ccccc23)cc1)Nc1cccc(C(F)(F)F)c1" for me?
0.0

Can you look up the reported call for "COc1ccc(-c2csc(N(C(=O)N3CCN(c4cc5c(cc4F)c(=O)c(C(=O)O)cn5C4CC4)CC3)c3ccccc3)n2)cc1" for me?
0.0

Can you look up the reported call for "Cc1ccc(Sc2oc(-c3ccc(C)cc3)nc2[P+](c2ccccc2)(c2ccccc2)c2ccccc2)cc1" for me?
0.0

Can you look up the reported call for "O=C1/C(=C/c2ccccc2Br)COc2ccc(O)c(O)c21" for me?
0.0

Can you look up the reported call for "CCOC(=O)c1cc(-c2ccc([N+](=O)[O-])cc2)n(-c2ccc(C(=O)O)c(O)c2)c1C" for me?
0.0

Can you look up the reported call for COC1C[C@H](O[C@@H]2C[C@H](O[C@@H]3C[C@H](O[C@@H]4C(=O)c5c(cc6cc(O[C@H]7C[C@@H](O[C@H]8C[C@@H](O)[C@H](O)C(C)O8)[C@H](O)C(C)O7)c(C)c(O)c6c5O)C[C@H]4C(OC)C(=O)[C@@H](O)[C@@H](C)O)OC(C)[C@H]3O)OC(C)[C@@H]2O)OC(C)[C@@H]1O (stereo partly specified) for me?
1.0

Can you look up the reported call for "CCOC(=O)c1c2c(n3ccc(C)cc13)C(=O)c1ccccc1C2=O" for me?
0.0

Can you look up the reported call for "NC(=O)c1c(NC(=O)c2ccccc2)sc2c1CCC(=O)C2" for me?
0.0

Can you look up the reported call for "Cn1c(O)c(C=NCCN=Cc2c(O)n(C)c(=O)n(C)c2=O)c(=O)n(C)c1=O" for me?
0.0

Can you look up the reported call for "O=C(/C=C/c1cccs1)c1ccc(Cl)nc1" for me?
0.0

Can you look up the reported call for "COc1ccc(-c2nn(-c3ccccc3)cc2/C=C2/SC(=S)N(C)C2=O)cc1" for me?
0.0

Can you look up the reported call for "C#CCOc1ccc2ncnc(Nc3cccc(NC(=O)C=C)c3)c2c1" for me?
0.0

Can you look up the reported call for "CN(C)CCNc1nc2c3cc(Cl)ccc3nn2c2ccccc12" for me?
0.0

Can you look up the reported call for "O=Nc1c(-c2c(O)[nH]c3ncccc23)[nH]c2ccccc12" for me?
0.0

Can you look up the reported call for "O=C1c2ccc3c4ccc5c6c(ccc(c7ccc(c2c37)C(=O)N1CCC[P+](c1ccccc1)(c1ccccc1)c1ccccc1)c64)C(=O)N(CCC[P+](c1ccccc1)(c1ccccc1)c1ccccc1)C5=O" for me?
0.0

Can you look up the reported call for "C#COc1cccc(Nc2ncnc3ncc(NC(=O)CCl)cc23)c1" for me?
0.0

Can you look up the reported call for "CCOC(=O)c1c(NC(=O)c2ccc(C(C)C)cc2)sc2c(CN(C)C)c(O)ccc12" for me?
0.0

Can you look up the reported call for "CCCCCCCCCCCCCCCCCCOc1ccccc1CC(=O)OCC[N+]1(C)CCCC1" for me?
0.0

Can you look up the reported call for "O=C(Cn1cc(CN2C(=O)c3ccccc3S2(=O)=O)nn1)Nc1nc2ccccc2s1" for me?
0.0

Can you look up the reported call for "Cc1noc(C)c1C(=O)OCc1coc2ccccc2c1=O" for me?
0.0

Can you look up the reported call for "c1cnc2[nH]cc(-c3csc(-c4cn(CCCN5CCOCC5)c5ccccc45)n3)c2c1" for me?
0.0

Can you look up the reported call for "COc1cc(CNC(=O)CCCC/C=C/C(C)C)ccc1OCc1nnc(Nc2ccc([N+](=O)[O-])cc2)o1" for me?
0.0

Can you look up the reported call for "CC1(C)CC[C@]2(C(=O)O)CC[C@]3(C)C(=CC[C@@H]4[C@@]5(C)C/C(=C/O)C(=O)C(C)(C)[C@@H]5CC[C@]43C)[C@@H]2C1" for me?
0.0

Can you look up the reported call for "CS(=O)(=O)c1cccc(-c2c(-c3cccc(OS(N)(=O)=O)c3)nc3sccn23)c1" for me?
0.0

Can you look up the reported call for "C[C@]12CC[C@@H]3c4ccc(O)c([N+](=O)[O-])c4CC[C@H]3[C@@H]1CCC2=O" for me?
0.0

Can you look up the reported call for "CO[C@]12C=C/C(=C(/C(=O)OCc3cccnc3)C(=O)CCCCCCCC[C@@]3(OC)C=C/C(=C(/C(=O)OCc4cccnc4)C(=O)CCCCCCCC1)O3)O2" for me?
0.0

Can you look up the reported call for "O=C(OCc1ccc2cccc(O)c2n1)N1CCN(C(=O)c2cc3cc(F)ccc3[nH]2)CC1" for me?
0.0

Can you look up the reported call for "O=C(c1cc2ccccc2o1)c1nn(-c2ccccc2)/c(=N/N=Cc2cn(-c3ccccc3)nc2-c2cc3ccccc3oc2=O)s1" for me?
0.0

---

Record form. Attribute: growth. Fill in for each entry.
# Test system: PC-3 prostate
# test_description: NCI-60 one-dose screen, 48 h (100 = growth as untreated, 0 = no growth, -100 = all killed)
# experimental_parameters: 10 µM unless noted
About 83,000 compounds went through this panel and 20% of them were active in at least one assay; those are over-represented in the sample as a whole.
API: value field is a number in %; no unit string.

Checklist item: growth tested on PC-3 prostate, entry "COc1ccc(C(=O)Nc2ncc(Cc3ccc(F)cc3)s2)cc1" , value?
27.6

Checklist item: growth tested on PC-3 prostate, entry "N=C(N)c1ccc(-c2ccc(-c3cc(Cl)cc(Cl)c3)o2)o1" , value?
-25.8

Checklist item: growth tested on PC-3 prostate, entry "N#Cc1c(NC(=O)c2ccccc2)sc2c1CCC(=O)C2" , value?
12

Checklist item: growth tested on PC-3 prostate, entry COC1C[C@H](O[C@@H]2C[C@H](O[C@@H]3C[C@H](O[C@@H]4C(=O)c5c(cc6cc(O[C@H]7C[C@@H](O[C@H]8C[C@@H](O)[C@H](O)C(C)O8)[C@H](O)C(C)O7)c(C)c(O)c6c5O)C[C@H]4C(OC)C(=O)[C@@H](O)[C@@H](C)O)OC(C)[C@H]3O)OC(C)[C@@H]2O)OC(C)[C@@H]1O (some centres undefined) , value?
9.36

---

# Tested on: U251 CNS
# test_description: NCI-60 one-dose screen, 48 h
# experimental_parameters: 10 µM unless noted
# Description: Growth inhibition of the U251 human tumor cell line is measured as a screen for anti-cancer activity. Cells are grown in 96 well plates and exposed to the test compound for 48 hours. Compounds are tested at a single concentration, which is 10^-5 M for most compounds. The reported endpoint is percent growth (GI% or GIPRCNT), where numbers from 0 - 100% represent growth inhibition, and numbers from -100% - 0 represent cell death. For example, a value of 40 represents 60% growth inhibition. […]
This is part of a sample that, as a whole, favours compounds with a hit. Of some 83,000 tested, about 20% had one in any assay. Active and inactive are the calls of the source. Rule for the calls: active = growth percent below 10; inactive = the rest.
Answer with one of the outcomes given here: active, inactive

Can you look up the reported call for "C=C1C(=O)O[C@H]2[C@H]1CC/C(COC(=O)CCSCCC(=O)OC/C1=C/CC[C@@]3(C)O[C@H]3[C@H]3OC(=O)C(=C)[C@@H]3CC1)=C\CC[C@@]1(C)O[C@@H]21" for me?
active

Can you look up the reported call for "CCN(C(=O)N1CCN(c2cc3c(cc2F)c(=O)c(C(=O)O)cn3C2CC2)CC1)c1nc(-c2ccc(Cl)cc2)cs1" for me?
inactive

Can you look up the reported call for "CCOC(=O)c1cc2c(=O)oc3ccccc3c2oc1=O" for me?
inactive

Can you look up the reported call for N#CC1=C(N)Oc2c(sc3c(Br)cccc23)C1c1ccc(F)cc1 (centres undefined) for me?
inactive

Can you look up the reported call for "COc1cc(/C=C/C(=O)c2cccc(Nc3nc(Nc4ccccc4)nc(Nc4ccccc4)n3)c2)cc(OC)c1OC" for me?
inactive

Can you look up the reported call for CC1=C(CCC(C)N(C)Cc2ccc(OCCCN3CCCC3)cc2)C(C)(C)CCC1 (centres undefined) for me?
active

Can you look up the reported call for "Cc1nc2sc(C(=O)Nc3ccccc3)c(N)c2cc1C(=O)c1ccccc1" for me?
inactive

Can you look up the reported call for "CN(C)CCNc1nc2c3cc(Cl)ccc3nn2c2ccccc12" for me?
inactive

Can you look up the reported call for COc1ccc(/C=C2\C(=O)N=C3N2NC(c2cc(Br)ccc2O)C=C(C)N3c2ccccc2)cc1 (centres undefined) for me?
inactive
